- System: M. tuberculosis H37Rv growth inhibition, 7H9 media
- experimental_details: M. tuberculosis growth inhibition, HTS (AID 449762);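 also: bacterial growth assessed after seven days of incubation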
- stated_conditions: measured here: IC90 growth inhibition
Results filed as inconclusive are left out.
measure: IC90 (µM)
# number only, unit µM dropped from output

Requested field: IC90. Item: C/C(=N\NC(=O)c1cc2ccccc2cc1O)c1ccc(C)o1
36.3

Note: attention shifts to another entry.
What measured IC90 goes with O=C(OCC(=O)N1CCCCC1)c1cc2ccccc2cc1O ?
9.61

====

- Tested on: M. tuberculosis H37Rv growth inhibition, 7H9 media
- experimental_details: M. tuberculosis growth inhibition, HTS (AID 449762);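 also: bacterial growth assessed after seven days of incubation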
- stated_conditions: measured here: IC90 growth inhibition
Results filed as inconclusive are left out.
Catalogue of compounds with associated IC90

I'd like to know its IC90. The compound in question is CCCc1ncc(CN2CCCC(C(=O)Nc3ccc(-c4cccc(OC)c4)cc3)C2)cn1 (stereo not drawn)
> 100 µM

More entries:
Quick one: IC90 of O=C(Nc1ccc2nsnc2c1)NC1CCCCC1 ?
> 50 µM

Name the recorded IC90 for CCOC(=O)c1nnc(-c2ccccc2)nc1NCc1ccccc1 .
> 100 µM

Data origin, for the record: PubChem BioAssay AID449762
